Give Activity for every item shown.
- System: Rattus norvegicus
- protocol_details: Antiinflammatory activity against carrageenan-induced paw edema rat inflammatory model assessed as paw pressure at 20 mg/kg, po after 30 mins
- Format: functional
# unit: g | format: bare number

The reported Rattus norvegicus Activity of Cc1c(CC(=O)O)cc(-c2ccc(S(C)(=O)=O)cc2)n1-c1cccc(F)c1 is 54.8

The reported Rattus norvegicus Activity of COc1ccc(-n2c(-c3ccc(S(C)(=O)=O)cc3)cc(CC(=O)OC(C)C)c2C)cc1 is 51

The reported Rattus norvegicus Activity of Cc1c(CC(=O)O)cc(-c2ccc(S(C)(=O)=O)cc2)n1-c1ccc(F)c(F)c1 is 58.3

The reported Rattus norvegicus Activity of Cc1c(CC(=O)OC(C)C)cc(-c2ccc(S(C)(=O)=O)cc2)n1-c1cccc(F)c1 is 59.5

The reported Rattus norvegicus Activity of COc1ccc(-n2c(-c3ccc(S(C)(=O)=O)cc3)cc(CC(=O)O)c2C)cc1 is 52.3

The reported Rattus norvegicus Activity of CCCCOC(=O)Cc1cc(-c2ccc(S(C)(=O)=O)cc2)n(-c2ccc(F)c(F)c2)c1C is 52.7

The reported Rattus norvegicus Activity of Cc1c(CC(=O)OC(C)C)cc(-c2ccc(S(C)(=O)=O)cc2)n1-c1ccc(F)c(F)c1 is 64.8

The reported Rattus norvegicus Activity of Cc1c(CC(=O)O)cc(-c2ccc(S(C)(=O)=O)cc2)n1-c1ccccc1 is 48.6

The reported Rattus norvegicus Activity of CCCCOC(=O)Cc1cc(-c2ccc(S(C)(=O)=O)cc2)n(-c2cccc(F)c2)c1C is 49.7

The reported Rattus norvegicus Activity of CCCCOC(=O)Cc1cc(-c2ccc(S(C)(=O)=O)cc2)n(-c2ccccc2)c1C is 52.5

The reported Rattus norvegicus Activity of CCCCOC(=O)Cc1cc(-c2ccc(S(C)(=O)=O)cc2)n(-c2ccc(OC)cc2)c1C is 53.4

The reported Rattus norvegicus Activity of Cc1ccc(-c2cc(C(F)(F)F)nn2-c2ccc(S(N)(=O)=O)cc2)cc1 is 56.5

----------
- protocol_details: Oral bioavailability in Sprague-Dawley rat at 10 mg/kg
- Type: ADME, organism-based
- assay_context: in vivo
measurement_kind: bioavailability (%)
# unit: % | format: bare number

The reported value for Cc1c(CC(=O)OC(C)C)cc(-c2ccc(S(C)(=O)=O)cc2)n1-c1ccccc1 in terms of bioavailability is 42

----------
Give IC50 for every item shown.
- tested_system: Prostaglandin G/H synthase 2 (Mus musculus, UniProt Q05769)
- Sequence (Q05769 whole entry): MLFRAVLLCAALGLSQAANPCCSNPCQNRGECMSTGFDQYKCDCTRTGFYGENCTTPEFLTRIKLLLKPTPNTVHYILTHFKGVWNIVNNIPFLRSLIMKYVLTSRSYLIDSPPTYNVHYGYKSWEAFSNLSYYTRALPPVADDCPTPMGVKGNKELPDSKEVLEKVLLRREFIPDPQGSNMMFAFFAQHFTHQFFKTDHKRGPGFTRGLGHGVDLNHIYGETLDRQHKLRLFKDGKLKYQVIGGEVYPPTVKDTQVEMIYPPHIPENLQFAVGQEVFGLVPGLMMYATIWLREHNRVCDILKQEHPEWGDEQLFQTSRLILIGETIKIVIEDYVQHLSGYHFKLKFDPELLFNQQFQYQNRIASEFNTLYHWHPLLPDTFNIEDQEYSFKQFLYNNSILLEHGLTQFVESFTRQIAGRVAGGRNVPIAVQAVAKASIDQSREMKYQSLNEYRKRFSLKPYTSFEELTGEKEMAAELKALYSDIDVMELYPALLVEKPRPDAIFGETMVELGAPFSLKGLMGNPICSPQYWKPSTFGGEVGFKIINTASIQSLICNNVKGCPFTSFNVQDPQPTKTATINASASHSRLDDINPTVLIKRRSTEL
# unit: nM | format: bare number

The reported value for CCCCOC(=O)Cc1cc(-c2ccc(S(C)(=O)=O)cc2)n(-c2ccc(OC)cc2)c1C in terms of IC50 is 38

The reported value for CCCCOC(=O)Cc1cc(-c2ccc(S(C)(=O)=O)cc2)n(-c2cccc(F)c2)c1C in terms of IC50 is 24

The reported value for CCCCOC(=O)Cc1cc(-c2ccc(S(C)(=O)=O)cc2)n(-c2ccccc2)c1C in terms of IC50 is 14

The reported value for CCCCOC(=O)Cc1cc(-c2ccc(S(C)(=O)=O)cc2)n(-c2ccc(F)c(F)c2)c1C in terms of IC50 is 30

The reported value for Cc1c(CC(=O)OC(C)C)cc(-c2ccc(S(C)(=O)=O)cc2)n1-c1cccc(F)c1 in terms of IC50 is 43

The reported value for Cc1c(CC(=O)O)cc(-c2ccc(S(C)(=O)=O)cc2)n1-c1ccc(F)c(F)c1 in terms of IC50 is 260

The reported value for COc1ccc(-n2c(-c3ccc(S(C)(=O)=O)cc3)cc(CC(=O)OC(C)C)c2C)cc1 in terms of IC50 is 22

The reported value for Cc1c(CC(=O)OC(C)C)cc(-c2ccc(S(C)(=O)=O)cc2)n1-c1ccc(F)c(F)c1 in terms of IC50 is 21

The reported value for COc1ccc(-n2c(-c3ccc(S(C)(=O)=O)cc3)cc(CC(=O)O)c2C)cc1 in terms of IC50 is 170

The reported value for Cc1c(CC(=O)O)cc(-c2ccc(S(C)(=O)=O)cc2)n1-c1cccc(F)c1 in terms of IC50 is 28

The reported value for Cc1c(CC(=O)OC(C)C)cc(-c2ccc(S(C)(=O)=O)cc2)n1-c1ccccc1 in terms of IC50 is 7.3
